System: IGROV-1
Assay: NCI tumour cell line growth inhibition, 48 h
Active and inactive are the calls of the source. Cut-off read from the data, not from the text of the source: active = GI50 up to about 1.1 µM and inactive = higher.
Endpoint: GI50

Would you please look over these solved cases?
GI50 for CO/C(=N\N=C(/C)C(F)(F)F)c1ccncc1 ?
> 100 µM (inactive)

Subsequent entry: C#CCOC(=O)C(N)CSSCC(N)C(=O)O (configuration not stated)
> 100 µM (inactive)

Subsequent entry: COc1cc2cc3c4c(cc(OC)c(OC)c4c2cc1OC)CCN3C
4.21 µM (inactive)

Subsequent entry: CCOC(NC(=O)CC)(C(F)(F)F)C(F)(F)F
> 100 µM (inactive)

Next:
GI50 for Cc1cc(S(=O)(=O)Nc2nc3ccccc3nc2-c2ccc(Cl)cc2)c(S)cc1Cl ?
12.4 µM (inactive)

Subsequent entry: Cc1cc2c(cc1Cl)SC(c1ccccc1)C(=O)NS2(=O)=O (configuration not stated)
40.8 µM (inactive)

Subsequent entry: C=C1CCc2ccccc2C1=O
> 100 µM (inactive)

Subsequent entry: CCC12C=C(C(=O)OC)N3c4ccccc4C4CCN(CCC1)C2C43 (configuration not stated)
> 100 µM (inactive)

Subsequent entry: O=C(O)c1cc2ccc3ccccc3c2oc1=O
> 100 µM (inactive)

Subsequent entry: O=C1c2ccccc2C(=O)c2c1ccc1c2N=C(c2ccc(Br)cc2)CC(c2cccc3ccccc23)N1 (configuration not stated)
> 100 µM (inactive)

Subsequent entry: CN1CCN(CC(=O)Nc2cccc3ccccc23)CC1
> 100 µM (inactive)

Subsequent entry: COc1ccc(C[C@H](N)C(=O)N2C[C@@H](CO)C[C@@H](n3ccc(=O)[nH]c3=O)C2)cc1
> 100 µM (inactive)

Subsequent entry: NNC(=S)N/N=C(\CCCC(=O)NCCc1ccccc1)CC(=O)c1ccccc1
> 100 µM (inactive)

Subsequent entry: COC(=O)C(=O)C(C(=O)C(=O)Nc1cc(C)ccc1C)c1nc2ccccc2nc1O (configuration not stated)
67 µM (inactive)

Subsequent entry: COc1ccc(C2OC[C@H]3O[C@@H](OCc4ccccc4)[C@H](O)[C@@H](O)[C@@H]3O2)cc1 (some centres not stated)
55 µM (inactive)

Subsequent entry: CN(C)CCCC1c2ccccc2Oc2ccc(C(F)(F)F)cc21 (configuration not stated)
14 µM (inactive)

Subsequent entry: COC1OC(CO)C(O)C(NC(=O)N(C)N=O)C1O (configuration not stated)
> 100 µM (inactive)

Subsequent entry: CN(C)CCNc1ccc(NCCN(C)C)c2c1C(=O)c1ncsc1C2=O
13.5 µM (inactive)

Subsequent entry: COC(=O)[C@@H]1[C@H](O)CCC2=C(CC(=O)c3ccoc3)[C@H](C)CC[C@]21C
> 50 µM (inactive)

Subsequent entry: NNC(=O)CSc1nc2ccc(I)cc2c(=O)n1Cc1ccccc1
24.4 µM (inactive)

Subsequent entry: COC1C(OC(=O)c2ccc(C)[nH]2)C(O)C(Oc2ccc3c(O)c(NC(=O)c4ccc(O)c(CC=C(C)C)c4)c(=O)oc3c2Cl)OC1(C)C (configuration not stated)
15.5 µM (inactive)

Subsequent entry: COc1cc2oc(=O)cc(C)c2cc1[N+](=O)[O-]
38.9 µM (inactive)
